system: Hepatotoxicity; experiment: FDA HLAED, gamma-glutamyl transferase (GGT) increase; settings: human
experimental_endpoint: GGT Increase - Index Value
Number only, no unit.

| compound | GGT Increase - Index Value |
| --- | --- |
| COc1cc([C@@H]2c3cc4c(cc3[C@H](O)[C@H]3COC(=O)[C@H]23)OCO4)cc(OC)c1OC [PODOFILOX] | 0 |

Looking for the measured GGT Increase - Index Value of C[C@H](CCC(=O)O)[C@H]1CC[C@H]2[C@@H]3[C@H](O)C[C@@H]4C[C@H](O)CC[C@]4(C)[C@H]3CC[C@]12C [CHENODIOL] , can you help?
0

Looking for the measured GGT Increase - Index Value of Nc1nc(F)nc2c1ncn2[C@@H]1O[C@H](CO)[C@@H](O)[C@@H]1O [FLUDARABINE] , can you help?
0

Looking for the measured GGT Increase - Index Value of Nc1nc2ccc(OC(F)(F)F)cc2s1 [RILUZOLE] , can you help?
22.6

====

Form field: Composite Activity - Marginal (one value per entry).
test system: Hepatotoxicity; assay: FDA HLAED, liver enzyme composite activity; conditions: human, Liver

| compound | Composite Activity - Marginal |
| --- | --- |
| Clc1ccccc1CN1CCc2sccc2C1 | 0 |
| Clc1ccc(CO/N=C(\Cn2ccnc2)c2ccc(Cl)cc2Cl)c(Cl)c1 | 0 |

Looking for the measured Composite Activity - Marginal of `C[C@](N)(Cc1ccc(O)cc1)C(=O)O` , can you help?
0

Looking for the measured Composite Activity - Marginal of `CN1CCC[C@H]1c1cccnc1` , can you help?
0

Looking for the measured Composite Activity - Marginal of `CC1(C)S[C@@H]2[C@H](NC(=O)[C@H](NC(=O)N3CCN(S(C)(=O)=O)C3=O)c3ccccc3)C(=O)N2[C@H]1C(=O)O` , can you help?
0

Looking for the measured Composite Activity - Marginal of `Nc1ccn([C@@H]2O[C@H](CO)[C@@H](O)[C@@H]2O)c(=O)n1` , can you help?
0

Looking for the measured Composite Activity - Marginal of `N[C@@H]1C[C@H]1c1ccccc1.N[C@H]1C[C@@H]1c1ccccc1` , can you help?
0

Looking for the measured Composite Activity - Marginal of CCc1cc(C(N)=S)ccn1 [ETHIONAMIDE] , can you help?
0

====

system: Hepatotoxicity; assay: FDA HLAED, gamma-glutamyl transferase (GGT) increase; conditions: human
experimental_endpoint: GGT Increase - Number of Reports

Some entries whose results are on file:
| compound | GGT Increase - Number of Reports |
| --- | --- |
| CC(=O)N(CC(O)CN(C(C)=O)c1c(I)c(C(=O)NCC(O)CO)c(I)c(C(=O)NCC(O)CO)c1I)c1c(I)c(C(=O)NCC(O)CO)c(I)c(C(=O)NCC(O)CO)c1I (stereo unspecified) [IODIXANOL] | < 4 |
| CC(C(=O)O)c1cccc(C(=O)c2ccccc2)c1 (stereo unspecified) [KETOPROFEN] | < 4 |
| CC(=O)O[C@H]1C(=O)[C@@]2(C)[C@H]([C@H](OC(=O)c3ccccc3)[C@]3(O)C[C@H](OC(=O)[C@H](O)[C@@H](NC(=O)c4ccccc4)c4ccccc4)C(C)=C1C3(C)C)[C@]1(OC(C)=O)CO[C@@H]1C[C@@H]2O [PACLITAXEL] | >= 4 |
| CCc1nn(CCCN2CCN(c3cccc(Cl)c3)CC2)c(=O)n1CCOc1ccccc1 [NEFAZODONE] | >= 4 |
| Cn1nnnc1SCC1=C(C(=O)O)N2C(=O)[C@@H](NC(=O)[C@H](O)c3ccccc3)[C@H]2SC1 [CEFAMANDOLE] | < 4 |

Proceeding to the next compound to report its GGT Increase - Number of Reports.
Looking for the measured GGT Increase - Number of Reports of CO/N=C(\C(=O)N[C@@H]1C(=O)N2C(C(=O)OC(C)OC(C)=O)=C(COC(N)=O)CS[C@H]12)c1ccco1 (stereo partly specified) [CEFUROXIME AXETIL] , can you help?
< 4

====

tested on: Hepatotoxicity; test: FDA HLAED, liver enzyme composite activity; settings: human, Liver
experimental_endpoint: Composite Activity - Score

Some entries whose results are on file:
| compound | experimental_endpoint | result |
| --- | --- | --- |
| Clc1ccc(C(Cn2ccnc2)OCc2ccsc2Cl)c(Cl)c1 (stereo unspecified) [TIOCONAZOLE] | Composite Activity - Score | Inactive |
| CN(C)C(=N)N=C(N)N [METFORMIN] | Composite Activity - Score | Inactive |
| NCCCNCCSP(=O)(O)O [AMIFOSTINE] | Composite Activity - Score | Inactive |
| CN[C@H]1CC[C@@H](c2ccc(Cl)c(Cl)c2)c2ccccc21 [SERTRALINE] | Composite Activity - Score | Inactive |
| Nc1ccn([C@H]2CC[C@@H](CO)O2)c(=O)n1 [ZALCITABINE] | Composite Activity - Score | Inactive |

Proceeding to the next compound to report its Composite Activity - Score.
So what Composite Activity - Score did CN(C/C=C/c1ccccc1)Cc1cccc2ccccc12 [NAFTIFINE] get with Hepatotoxicity?
Inactive

====

system: Hepatotoxicity; test: FDA HLAED, serum glutamic oxaloacetic transaminase (SGOT) increase; conditions: human
experimental_endpoint: SGOT Increase - Activity Score

Some entries whose results are on file:
| compound | result |
| --- | --- |
| C/C(=C\C(=O)OCCCCCCCCC(=O)O)C[C@@H]1OC[C@H](C[C@@H]2O[C@H]2[C@@H](C)[C@H](C)O)[C@@H](O)[C@H]1O | Inactive |
| CC(=O)CC(c1ccccc1)c1c(O)c2ccccc2oc1=O (stereo not drawn) | Marginally Active |
| N=C(N)c1ccc(OCCCCCOc2ccc(C(=N)N)cc2)cc1 | Inactive |
| O=C(O)P(=O)(O)O | Active |
| C[N+](C)(C)CCO.Cn1c(=O)c2[n-]cnc2n(C)c1=O | Inactive |
| C[C@@H]1O[C@@H]1P(=O)(O)O | Inactive |
| CC(C)OC(=O)CCC/C=C\C[C@@H]1[C@@H](CC[C@@H](O)CCc2ccccc2)[C@H](O)C[C@@H]1O | Inactive |
| Cc1cccc(C)c1OCC(C)N (stereo not drawn) | Active |
| Nc1cc(-c2ccncc2)c[nH]c1=O | Inactive |
| FCOC(C(F)(F)F)C(F)(F)F | Inactive |

Looking for the measured SGOT Increase - Activity Score of `CCCCC(=O)N(Cc1ccc(-c2ccccc2-c2nnn[nH]2)cc1)[C@H](C(=O)O)C(C)C` , can you help?
Inactive

Looking for the measured SGOT Increase - Activity Score of C[C@]12CC[C@@H]3c4ccc(OC(=O)c5ccccc5)cc4CC[C@H]3[C@@H]1CC[C@@H]2O [ESTRADIOL BENZOATE] , can you help?
Inactive

Looking for the measured SGOT Increase - Activity Score of `Nc1c2c(nc3ccccc13)CCCC2` , can you help?
Active

====

tested on: Hepatotoxicity; assay: FDA HLAED, serum glutamic pyruvic transaminase (SGPT) increase; settings: human
experimental_endpoint: SGPT Increase - Number of Reports

Some entries whose results are on file:
| molecule | SGPT Increase - Number of Reports |
| --- | --- |
| CC(N)C12CC3CC(CC(C3)C1)C2 (configuration not stated) | < 4 |
| CO/N=C(\C(=O)N[C@@H]1C(=O)N2C(C(=O)O)=CCS[C@H]12)c1csc(N)n1 | >= 4 |
| CCCCC[C@H](O)/C=C/[C@H]1[C@H](O)CC(=O)[C@@H]1CCCCCCC(=O)O | < 4 |
| CCN1CCN(C(=O)N[C@@H](C(=O)N[C@@H]2C(=O)N3C(C(=O)O)=C(CSc4nnnn4C)CS[C@H]23)c2ccc(O)cc2)C(=O)C1=O | < 4 |
| CN1C(=O)OC(C)(C)C1=O | >= 4 |
| CCC(=O)Oc1ccc2c(c1)CC[C@@H]1[C@@H]2CC[C@]2(C)[C@@H](OC(=O)CC)CC[C@@H]12 [ESTRADIOL DIPROPIONATE] | >= 4 |
| CCCCCCCCCCC(=O)O[C@H]1CC[C@H]2[C@@H]3CCc4cc(O)ccc4[C@H]3CC[C@]12C [ESTRADIOL UNDECYLATE] | >= 4 |
| CC1=C(/C=C/C(C)=C/C=C/C(C)=C/C(=O)O)C(C)(C)CCC1 | < 4 |

Looking for the measured SGPT Increase - Number of Reports of `CC(=O)[C@]1(O)Cc2c(O)c3c(c(O)c2[C@@H](O[C@H]2C[C@H](N)[C@H](O)[C@H](C)O2)C1)C(=O)c1ccccc1C3=O` , can you help?
< 4

Looking for the measured SGPT Increase - Number of Reports of `CC(C)(C)NC(=O)[C@@H]1C[C@@H]2CCCC[C@@H]2CN1C[C@@H](O)[C@H](Cc1ccccc1)NC(=O)[C@H](CC(N)=O)NC(=O)c1ccc2ccccc2n1` , can you help?
< 4

Looking for the measured SGPT Increase - Number of Reports of COC(=O)C1=C(C)NC(C)=C(C(=O)OC(C)C)C1c1cccc2nonc12 (configuration not stated) , can you help?
>= 4

Looking for the measured SGPT Increase - Number of Reports of NCCCC[C@H](N[C@@H](CCc1ccccc1)C(=O)O)C(=O)N1CCC[C@H]1C(=O)O [LISINOPRIL ANHYDROUS] , can you help?
>= 4

Looking for the measured SGPT Increase - Number of Reports of CCC(=O)[C@@]1(C)[C@H](C)C[C@H]2[C@@H]3CCC4=CC(=O)C=C[C@]4(C)[C@H]3[C@@H](O)C[C@@]21C [RIMEXOLONE] , can you help?
< 4

Looking for the measured SGPT Increase - Number of Reports of `Cc1ccnc2c1NC(=O)c1cccnc1N2C1CC1` , can you help?
>= 4

Looking for the measured SGPT Increase - Number of Reports of COC(=O)C1=C(C)NC(C)=C(C(=O)OCC(C)C)C1c1ccccc1[N+](=O)[O-] (configuration not stated) , can you help?
< 4

Looking for the measured SGPT Increase - Number of Reports of `Cc1ccc(-c2nc3ccc(C)cn3c2CC(=O)N(C)C)cc1` , can you help?
>= 4

Looking for the measured SGPT Increase - Number of Reports of `C[C@H](CCC(=O)O)[C@H]1CC[C@H]2[C@@H]3[C@@H](O)C[C@@H]4C[C@H](O)CC[C@]4(C)[C@H]3CC[C@]12C` , can you help?
< 4

Looking for the measured SGPT Increase - Number of Reports of `c1ccc([C@H]2CN3CCSC3=N2)cc1` , can you help?
< 4
